ASSAY NAME: drug combination toxicity in non-malignant astrocytes – cell-based, BGB or cisplatin IC20 combos, cytotoxicity control for chromothriptic childhood tumor combination screen (AID 1671460);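 further: cells exposed to compounds for 96 hours before viability readout; 0% = vehicle and 100% = killing control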
CONDITION SUMMARY: Human astrocytes, viability inhibition, drug combinations; at 0.5 µM; stronger effect = higher value
MEASURED PARAMETER: inhibition (%)
Give the number; % is assumed, so skip it.

# count of solved cases: 5
C=C1CCC(O)CC1=CC=C1CCCC2(C)C1CCC2C(C)C=CC(C)C(C)C (stereo unspecified) = 2.39
O=C(O)c1cc2cccc([N+](=O)[O-])c2[nH]1 = -16
Cc1c(Br)cc(NCC(=O)N/N=C/c2cc([N+](=O)[O-])ccc2O)cc1Br = 9.92
CC(C)C(=O)SCCCCCCC(=O)Nc1nc(-c2ccccc2)cs1 = 31.1
C[C@@H]1COCCN1c1cc(C2(S(C)(=O)=O)CC2)nc(-c2cccc3[nH]ccc23)n1 = 23.1

Inquiry: Using the record for CC1OC(n2cc(F)c(=O)[nH]c2=O)C(O)C1O (stereo unspecified) , report its inhibition.
Reply text: -18.2

* * *

ASSAY NAME: galactose survival enhancers in mitochondrial complex I cybrids – cell-based, galactose medium, ATP luminescence, primary screen (AID 1645843);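 further: positive z means more ATP and so rescue of galactose-driven cybrid death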
CONDITION SUMMARY: complex I mutant cybrid cells, 72 h, stronger effect = higher value
Categories are assigned from the measured z-score using these intervals: low (below -0.4), moderate (-0.4 to below 0.4), high (0.4 or more)

Nc1nc2ccc(Cl)cc2n2c(-c3ccccc3)nnc12 = high
CCn1ncc(NC(=O)Cn2cc(-c3ncnc4ccsc34)cn2)n1 = low
CCCCCCC/C=C\CCCCCCCCC(=O)O = high
COc1ccc(CC(C)NCC(O)c2ccc(O)c(NC=O)c2)cc1 (configuration not stated) = moderate
Nc1ccc(-c2ccc3ccccc3n2)cc1 = low

Okay, now this compound:
Inquiry: Exercise: read the entry O=C(NOCC1CC1)c1cc(Br)c(F)c(F)c1Nc1ccc(I)cc1Cl and state which class it falls under.
Reply text: low

* * *

ASSAY NAME: growth inhibition, single agents and combos, HD-MB03, cell-based, BGB or cisplatin IC20 combos, synergistic combos for chromothripsis tumors (AID 1671455);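 further: 0% = vehicle DMSO and 100% = high DMSO as cytotoxic control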
CONDITION SUMMARY: HD-MB03 medulloblastoma cells, at 0.5 µM, stronger effect = higher value
Non-standard residues stand in square brackets, D forms with d. Residues, ends and D or L forms follow the SMILES beside them. Dolaproine = CO[C@@H]([C@@H]1CCCN1)[C@@H](C)C(=O)O; Dil = CC[C@H](C)[C@H](NC)[C@@H](CC(=O)O)OC; NMeV = CN[C@H](C(=O)O)C(C)C
MEASURED PARAMETER: inhibition (%)
Give the number; % is assumed, so skip it.

COc1nc(N)nc2c1ncn2[C@@H]1O[C@H](CO)[C@@H](O)[C@H]1O = -9.1
Nc1ccccc1NC(=O)c1cnccn1 = -6.67
CCC(C)C(=O)OC1CC(C)C=C2C=CC(C)C(CCC3CC(O)CC(=O)O3)C21 (stereo not given) = 30.1

Inquiry: Using the record for O=C(CCCCCCC(=O)Nc1ccc(I)cc1)NO , report its inhibition.
Reply text: 12.8

Inquiry: Using the record for CC(C)OC(=O)[C@H](C)NP(=O)(OC[C@H]1O[C@@H](n2ccc(=O)[nH]c2=O)C(C)(F)[C@@H]1O)Oc1ccccc1 (stereo not given in full) , report its inhibition.
Reply text: -8.35

Inquiry: Using the record for COc1cccc2c1C(=O)c1c(O)c3c(c(O)c1C2=O)CC(O)(C(C)=O)CC3OC1CC(N)C(O)C(C)O1 (stereo not given) , report its inhibition.
Reply text: 97.2

Inquiry: Using the record for O=c1[nH]cnc2c1ncn2C1CCC(CO)O1 (stereo not given) , report its inhibition.
Reply text: -5.57

Inquiry: Using the record for CC(=O)C1(O)Cc2c(O)c3c(c(O)c2C(OC2CC(N)C(O)C(C)O2)C1)C(=O)c1ccccc1C3=O (stereo not given) , report its inhibition.
Reply text: 94.5

Inquiry: Using the record for Nc1ccn(C2CCC(CO)O2)c(=O)n1 (stereo not given) , report its inhibition.
Reply text: -9.09

Inquiry: Using the record for CC(C)c1ccc(-c2cc(=O)c3ccccc3o2)cc1 , report its inhibition.
Reply text: -10

Inquiry: Using the record for NC(=O)c1ncn(C2OC(CO)C(O)C2O)c1O (stereo not given) , report its inhibition.
Reply text: -5.96

Inquiry: Using the record for COc1ccccc1S(=O)(=O)Nc1ccc2c(c1)CN(C)C(=O)N2 , report its inhibition.
Reply text: -5.44

Inquiry: Using the record for O=C1N=c2ccccc2=C1c1c(O)[nH]c2ccccc12 , report its inhibition.
Reply text: -7.99

Inquiry: Using the record for CCC(Sc1nnc2c3ccccc3n(CC)c2n1)C(=O)Nc1ccccc1OC (stereo not given) , report its inhibition.
Reply text: -13.9

Inquiry: Using the record for COc1ccc(-c2nc(-c3cc(C(F)(F)F)cc(C(F)(F)F)c3)n(Cc3ccc(C(N)=O)cc3)c2-c2ccc(OC)cc2)cc1 , report its inhibition.
Reply text: -5.54

Inquiry: Using the record for Cc1ccc([N+](=O)[O-])cc1S(=O)(=O)N(C)/N=C\c1cnc2ccc(Br)cn12 , report its inhibition.
Reply text: 92.1

Inquiry: Using the record for O=C(CCCCCCC(=O)NO)NO , report its inhibition.
Reply text: -7.45

Inquiry: Using the record for CC[C@H](C)[C@@H]([C@@H](CC(=O)N1CCC[C@H]1[C@H](OC)[C@@H](C)C(=O)N[C@@H](Cc1ccccc1)C(=O)O)OC)N(C)C(=O)[C@@H](NC(=O)[C@@H](NC)C(C)C)C(C)C (H-[NMeV]V[Dil][Dolaproine]F-OH) , report its inhibition.
Reply text: 43.8

Inquiry: Using the record for O=c1[nH]c(=O)n(C2CC(O)C(CO)O2)cc1I (stereo not given) , report its inhibition.
Reply text: -7.04

Inquiry: Using the record for CC(C)(C#N)c1ccc(N2C(=O)OCc3cnc4ccc(-c5cnc6ccccc6c5)cc4c32)cc1 , report its inhibition.
Reply text: -11.6

* * *

# reported inhibition; entries follow
Tested on: Hepatitis C virus NS3 helicase
ASSAY NAME: blockers of NS3h binding to DNA – biochemical, fluorescence polarization, NIH Clinical Collection, primary screen (AID 743270)
CONDITION SUMMARY: NS3 helicase binding to Cy5-dT15 DNA, stronger effect = higher value, concentration not given here
Give the number; % is assumed, so skip it.

CO[C@H]1/C=C/O[C@@]2(C)Oc3c(C)c(O)c4c(O)c(c5c(c4c3C2=O)=NC2(CCN(CC(C)C)CC2)N=5)NC(=O)/C(C)=C\C=C\[C@H](C)[C@H](O)[C@@H](C)[C@@H](O)[C@@H](C)[C@H](OC(C)=O)[C@@H]1C = 1.36
CO[C@H]1C=CO[C@@]2(C)Oc3c(C)c(O)c4c(O)c(c(/C=N/N5CCN(C6CCCC6)CC5)c(O)c4c3C2=O)NC(=O)C(C)=CC=C[C@H](C)[C@H](O)[C@@H](C)[C@@H](O)[C@@H](C)[C@H](OC(C)=O)[C@@H]1C = -3.56
O=C(O)COCCN1CCN([C@@H](c2ccccc2)c2ccc(Cl)cc2)CC1 = -1.98
CC[C@H]1OC(=O)[C@H](C)C(=O)[C@H](C)[C@@H](O[C@@H]2O[C@H](C)C[C@H](N(C)C)[C@H]2O)[C@](C)(OC)C[C@@H](C)C(=O)[C@H](C)[C@@H]2N(CCCCn3cnc(-c4cccnc4)c3)C(=O)O[C@@]21C = -9.83
CC/C(O)=N/S(=O)(=O)c1ccc(-c2c(-c3ccccc3)noc2C)cc1 = -1.97

Inquiry: Using the record for COc1ccc2cc([C@@H](C)C(=O)O)ccc2c1 , report its inhibition.
Reply text: 0.66

* * *

ASSAY NAME: restoration of touch response, mutant HTT neurons – whole organism, C. elegans mechanosensory neurons, N-terminal huntingtin (AID 1599)
CONDITION SUMMARY: C. elegans polyQ-huntingtin mechanosensory neurons, stronger effect = higher value
Results with a measured potency or affinity are listed apart. Peptide text beside a SMILES is read from it.
# reported rescue above control; entries follow
Write the number on its own, no unit after it.

NCCCCC(N)C(=O)NCC(=O)NC(Cc1cnc[nH]1)C(=O)NC(CCCCN)C(=O)O (centres undefined) (H-KGHK-OH; configuration not given here) = 2.83
CCCCC(=O)OC1(C(=O)CO)C(C)CC2C3CCC4=CC(=O)C=CC4(C)[C@@]3(F)[C@@H](O)CC21C (some centres undefined) = -0.98
CC(=O)CCC1C2=NC(=C\C3=NC(=C(/C)C4=NC(C)(C5[N-]/C(=C\2C)C(C)(CCC(=O)NCC(C)OP(=O)(O)O[C@@H]2[C@@H](CO)OC(n6cnc7cc(C)c(C)cc76)[C@@H]2O)C5CC(N)=O)C(C)(CC(N)=O)C4CCC(N)=O)/C(C)(CC(N)=O)C3CCC(N)=O)/C1(C)C.[CH2-][C@H]1OC(n2cnc3c(N)ncnc32)[C@H](O)[C@@H]1O.[Co+2] (some centres undefined) = 0.82

# input for lookup
Inquiry: Using the record for CC(CNC(=O)c1ccccc1)C(=O)OCC(=O)[C@@]12OC(C)(C)O[C@@H]1CC1C3CCC4=CC(=O)C=C[C@]4(C)[C@@]3(F)[C@@H](O)C[C@@]12C (some centres undefined) , report its rescue above control.
Reply text: 13.9
